experimentDescription: Cell viability assay (MTS)
Assay type: cell-based
appliedConditions: human, HepaRG (human hepatic progenitor cell line); read-out: LC50
Peptide text beside a SMILES is read from it.
CC50 at 1 hour for assorted molecules
recordedEndpoint: CC50 at 1 hour

INSERT INTO measurements (molecule, result) VALUES
  ('CC(C)C[C@H](NC(=O)[C@H](Cc1c[nH]c2ccccc12)NC(=O)[C@H](Cc1c[nH]c2ccccc12)NC(=O)[C@@H](N)Cc1c[nH]c2ccccc12)C(=O)N[C@@H](CCCNC(=N)N)C(=O)N[C@@H](CCCNC(=N)N)C(=O)N[C@@H](CCCNC(=N)N)C(=O)N[C@@H](Cc1c[nH]c2ccccc12)C(N)=O [Horine, WWWLRRRW] (H-WWWLRRRW-NH2; N-terminus and C-terminus assumed)', '> 80 µM'),
  ('CC(C)[C@H](NC(=O)[C@H](Cc1c[nH]c2ccccc12)NC(=O)[C@H](Cc1c[nH]c2ccccc12)NC(=O)[C@H](Cc1c[nH]c2ccccc12)NC(=O)[C@H](Cc1c[nH]c2ccccc12)NC(=O)[C@H](CCCNC(=N)N)NC(=O)[C@H](CCCNC(=N)N)NC(=O)[C@@H](N)CCCNC(=N)N)C(N)=O [Verine, RRRWWWWV] (H-RRRWWWWV-NH2; N-terminus and C-terminus assumed)', '> 80 µM');
